System: MT-2 cells
Test: Cytotoxicity (cell viability) in MT-2 cells
Settings: MT-2 cells; means of several experiments
MEASUREMENT_KIND: TC25 (minimum drug concentration that reduced cell viability by 25%)

{"COMPOUND": "OC[C@@H]1CC[C@H](n2cnc3c(O)ncnc32)S1", "READOUT_VALUE": "> 100 µg/mL"}
{"COMPOUND": "Cc1cn([C@H]2C[C@H](N=[N+]=[N-])[C@@H](CO)O2)c(=O)[nH]c1=O [AZT, 3'-azido-3'-deoxythymidine, reference compound]", "READOUT_VALUE": "9.3 µg/mL"}
{"COMPOUND": "OC[C@@H]1CC[C@H](n2cnc3c(Cl)ncnc32)S1", "READOUT_VALUE": "21 µg/mL"}
{"COMPOUND": "Nc1nc2c(ncn2[C@H]2CC[C@@H](CO)S2)c(=O)[nH]1", "READOUT_VALUE": "> 200 µg/mL"}
{"COMPOUND": "Nc1ncnc2c1ncn2[C@H]1CC[C@@H](CO)S1", "READOUT_VALUE": "> 100 µg/mL"}
{"COMPOUND": "CNc1ncnc2c1ncn2[C@H]1CC[C@@H](CO)S1", "READOUT_VALUE": "> 100 µg/mL"}
{"COMPOUND": "Cc1cn([C@H]2CC[C@@H](CO)S2)c(=O)[nH]c1=O", "READOUT_VALUE": "> 100 µg/mL"}

----------
Tested on: CEM cells infected with HIV virus (HIV-1 isolates IIIB and/or RF)
Experiment: Inhibition of HIV cytopathogenic effects (CPE) in CEM cells (MTT)
Format: cell-based
Details: CEM cells; area between the cytotoxicity and the antiviral curves
Description: Compounds of the present invention are readily screened for anti-HIV activity by the following standard screening assay in CEM and MT2 cells. 1. Compound dilution and delivery to the plates. […] The maximum solubility is determined as appropriate. […] 2. […] During the time that the test compound dilutions are prepared, cells are washed and counted. Viability is monitored by trypan blue dye exclusion and assays are not performed if the viability falls below 90%. […]
MEASUREMENT_KIND: TAI (total antiviral index)

{"MOLECULE": "Nc1nc(N)c2ncn([C@H]3CC[C@@H](CO)S3)c2n1", "MEASUREMENT_KIND": "TAI (total antiviral index)", "RELATION_SIGN": "=", "READOUT_VALUE": 21.0}
{"MOLECULE": "Cc1cn([C@H]2C[C@H](N=[N+]=[N-])[C@@H](CO)O2)c(=O)[nH]c1=O [AZT, 3'-azido-3'-deoxythymidine, reference compound]", "MEASUREMENT_KIND": "TAI (total antiviral index)", "RELATION_SIGN": ">", "READOUT_VALUE": 93}
{"MOLECULE": "Nc1nc2c(ncn2[C@H]2CC[C@@H](CO)S2)c(=O)[nH]1", "MEASUREMENT_KIND": "TAI (total antiviral index)", "RELATION_SIGN": "=", "READOUT_VALUE": 0.0}
{"MOLECULE": "Cc1cn([C@H]2CC[C@@H](CO)S2)c(=O)[nH]c1=O", "MEASUREMENT_KIND": "TAI (total antiviral index)", "RELATION_SIGN": "=", "READOUT_VALUE": 4.0}
{"MOLECULE": "Nc1ccn([C@H]2CC[C@@H](CO)O2)c(=O)n1 [DDC, dideoxycytidine, reference compound]", "MEASUREMENT_KIND": "TAI (total antiviral index)", "RELATION_SIGN": ">", "READOUT_VALUE": 63}
{"MOLECULE": "Cc1cn([C@H]2C[C@H](N=[N+]=[N-])[C@@H](CO)S2)c(=O)[nH]c1=O", "MEASUREMENT_KIND": "TAI (total antiviral index)", "RELATION_SIGN": ">", "READOUT_VALUE": 60.15}
{"MOLECULE": "Nc1ccn([C@H]2CC[C@@H](CO)S2)c(=O)n1", "MEASUREMENT_KIND": "TAI (total antiviral index)", "RELATION_SIGN": ">", "READOUT_VALUE": 65}

----------
System: CEM cells
Test: Cytotoxicity (cell viability) in CEM cells
Settings: CEM cells; means of several experiments
MEASUREMENT_KIND: TC25 (minimum drug concentration that reduced cell viability by 25%)

{"MOLECULE": "Cc1cn([C@H]2C[C@H](N=[N+]=[N-])[C@@H](CO)S2)c(=O)[nH]c1=O", "READOUT_VALUE": "> 100 µg/mL"}
{"MOLECULE": "Nc1nc2c(ncn2[C@H]2CC[C@@H](CO)S2)c(=O)[nH]1", "READOUT_VALUE": "> 100 µg/mL"}
{"MOLECULE": "Cc1cn([C@H]2CC[C@@H](CO)S2)c(=O)[nH]c1=O", "READOUT_VALUE": "> 150 µg/mL"}
{"MOLECULE": "Nc1nc(N)c2ncn([C@H]3CC[C@@H](CO)S3)c2n1", "READOUT_VALUE": "97.0 µg/mL"}
{"MOLECULE": "Nc1nc(Cl)nc2c1ncn2[C@H]1CC[C@@H](CO)S1", "READOUT_VALUE": "5.74 µg/mL"}
{"MOLECULE": "Cc1cn([C@H]2C[C@H](N=[N+]=[N-])[C@@H](CO)O2)c(=O)[nH]c1=O [AZT, 3'-azido-3'-deoxythymidine, reference compound]", "READOUT_VALUE": "> 10 µg/mL"}
{"MOLECULE": "Nc1ccn([C@H]2CC[C@@H](CO)S2)c(=O)n1", "READOUT_VALUE": "> 100 µg/mL"}
